This collection of values is drawn from patent US11365192B2.

Biological target: UniProtKB Q02928
Assay: Inhibition test against 20-HETE producing enzyme CYP4A11 (luciferine derivative, luminescence)
Assay type: biochemical
Conditions: E. coli membrane fraction expressing human CYP4A11, 60 μM luciferine derivative, room temperature 60 minutes
From the text: (1) Inhibition Test for Each Compound of the Present Invention Against 20-HETE Producing Enzymes (CYP4F2 and CYP4A11) […] A: Luminescence value with addition of compound B: Luminescence value without addition of compound and enzyme
Field: label. Allowed values: true (1) (IC50 < 90 nM) or false (0) (IC50 >= 90 nM).

1. O=C(O)CCC(=O)N1CCC(COc2ccc(-c3ccn[nH]3)nc2)CC1 [Example 48-1] :: false (0)

(Q) IC50 strictly < 90 nM for this compound? CCS(=O)(=O)NCC(=O)N1CCC[C@@H](COc2ccc(-c3ccn[nH]3)nc2)C1 [Example 41-5]
(A) false (0)

(Q) Please indicate whether the reported IC50 of O=C(O)C1(CCCCOc2ccc(-c3ccn[nH]3)nc2)CCCCC1 [Example 1-35] is strictly below 90 nM.
(A) true (1)

(Q) # TODO verify IC50 < 90 nM strictly for this compound: O=C(O)C1COc2ccc(COc3ccc(-c4ccn[nH]4)nc3)cc2C1 (stereo not drawn) [Example 1-68]
(A) true (1)

(Q) Lab note: confirm whether the reported IC50 for this compound is below 90 nM, equality not counting. compound: Cc1cn[nH]c1-c1ccc(OCC23CCC(C(=O)O)(CC2)CC3)cn1 [Example 38-3]
(A) true (1)

(Q) Consider CS(=O)(=O)c1cc(O)cc(COc2ccc(-c3[nH]ncc3Cl)nc2)c1 [Example 66-1] . Does its IC50 lie strictly below 90 nM?
(A) true (1)

(Q) Regarding O=C(O)[C@]12CC3C[C@H](C1)[C@@H](COc1ccc(-c4ccn[nH]4)nc1)[C@@H](C3)C2 [Example 2-2] , kindly confirm whether its IC50 is beneath 90 nM.
(A) false (0)

(Q) Regarding O=C(O)C1CN(S(=O)(=O)c2cccc(COc3ccc(-c4ccn[nH]4)nc3)c2)CCO1 (stereo not drawn) [Example 22-12] , kindly confirm whether its IC50 is beneath 90 nM.
(A) true (1)

(Q) I'd appreciate it if you could check whether CC(C)(C(=O)O)C(=O)N1CCc2ccc(COc3ccc(-c4ccn[nH]4)nc3)cc2C1 [Example 17-1] has IC50 smaller than 90 nM.
(A) false (0)

---

Target: human CYP4A11 (Homo sapiens (Human))
Assay: Inhibition test against 20-HETE producing enzyme CYP4A11 (luciferine derivative, luminescence)
Type: biochemical
Details: human CYP4A11, luciferine derivative, luminescence
Below is a list of entries, each paired with its recorded pIC50 value.
Units for pIC50: none; it is -log10 of a concentration expressed in mol/L.

Guide cases for pIC50, answers given:
1. CN(C)C(=O)/C=C/c1cccc(COc2ccc(-c3ccn[nH]3)nc2)c1 :: 6.68
2. CS(=O)(=O)NC(=O)Cc1cccc(COc2ccc(-c3ccn[nH]3)nc2)c1 :: 7.36
3. O=C(O)C1CC1c1ccc(COc2ccc(-c3ccn[nH]3)nc2)cc1 (stereo not drawn) :: 7.08
4. O=C(CCc1cccc(COc2ccc(-c3ccn[nH]3)nc2)c1)NC1COC1 :: 6.82
5. O=C(N[C@H](Cc1ccccc1)C(=O)O)c1cccc(COc2ccc(-c3ccn[nH]3)nc2)c1 :: 6.66

(Q) Please indicate pIC50 recorded for O=C(O)CC1CCCN(C(=O)c2cccc(COc3ccc(-c4ccn[nH]4)nc3)c2)C1 (stereo not drawn)
(A) 6.43

(Q) // Input: C[C@H](O)CNC(=O)CCc1cccc(COc2ccc(-c3ccn[nH]3)nc2)c1 . Output its pIC50 only.
(A) 6.89

(Q) Retrieve pIC50 measured for O=C(O)C1(CCCCCCCCOc2ccc(-c3ccn[nH]3)nc2)CCS(=O)(=O)CC1 and print it.
(A) 6.57

(Q) Please list pIC50 recorded for the molecule O=C(O)C1(CCCCCCCCOc2ccc(-c3ccn[nH]3)nc2)CCOC1 (stereo not drawn)
(A) 6.82

(Q) Give a short answer stating reported pIC50 for O=C(CCc1cccc(COc2ccc(-c3ccn[nH]3)nc2)c1)NCC(=O)N1CCCC1 .
(A) 6.55

---

Molecular target: human CYP4A11 (Homo sapiens (Human), UniProt Q02928)
Sequence (Q02928 5-519): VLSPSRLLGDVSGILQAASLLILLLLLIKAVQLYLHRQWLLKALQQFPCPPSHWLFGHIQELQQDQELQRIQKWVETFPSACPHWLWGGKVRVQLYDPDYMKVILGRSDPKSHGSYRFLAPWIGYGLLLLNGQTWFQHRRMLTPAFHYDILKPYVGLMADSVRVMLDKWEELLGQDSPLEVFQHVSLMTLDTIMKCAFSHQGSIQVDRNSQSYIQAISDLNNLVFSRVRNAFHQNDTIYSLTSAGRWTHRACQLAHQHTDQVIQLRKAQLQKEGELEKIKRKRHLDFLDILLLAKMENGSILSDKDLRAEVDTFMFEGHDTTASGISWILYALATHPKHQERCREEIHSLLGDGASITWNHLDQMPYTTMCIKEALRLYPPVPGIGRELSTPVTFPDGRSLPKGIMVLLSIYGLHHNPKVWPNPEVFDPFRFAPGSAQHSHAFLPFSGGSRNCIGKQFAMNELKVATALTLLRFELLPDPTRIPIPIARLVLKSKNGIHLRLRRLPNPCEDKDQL
Assay: Inhibition test against 20-HETE producing enzyme CYP4A11 (luciferine derivative, luminescence)
Format: biochemical
Conditions: E. coli membrane fraction expressing human CYP4A11, 60 μM luciferine derivative, room temperature 60 minutes
Each entry falls in a class defined on IC50; the bands are group 1: < 0.03 µM; group 2: ≥ 0.03 µM and < 0.04 µM; group 3: ≥ 0.04 µM

Would you please look over these solved cases?
1. c1cc(-c2ccc(OCCCCCc3nnn[nH]3)cn2)[nH]n1 [Example 62-1] :: group 1
2. O=C(O)c1ccccc1CCCOc1ccc(-c2ccn[nH]2)nc1 [Example 1-10] :: group 3
3. O=C(O)CCc1cccc(CCOc2ccc(-c3ccn[nH]3)nc2)c1 [Example 1-16] :: group 2
4. CC(=O)N1CCC(C(=O)O)(c2cccc(COc3ccc(-c4ccn[nH]4)nc3)c2)CC1 [Example 33-1] :: group 3
5. O=C(O)c1ccc(CCCCOc2ccc(-c3ccn[nH]3)nc2)cc1 [Example 1-18] :: group 1
6. O=C(O)C1CCCN(S(=O)(=O)c2cccc(COc3ccc(-c4ccn[nH]4)nc3)c2)C1 (stereo not drawn) [Example 22-9] :: group 3
7. O=C(O)c1cccc(-c2cccc(COc3ccc(-c4ccn[nH]4)nc3)c2)c1 [Example 31-1] :: group 1

Let us examine a further case.
(Q) Category lookup for the molecule O=C(O)c1ncc(-c2cccc(COc3ccc(-c4ccn[nH]4)nc3)c2)cn1 [Example 22-7]
(A) group 2

---

Molecular target: human CYP4A11 (Homo sapiens (Human), UniProt Q02928)
Assay: Inhibition test against 20-HETE producing enzyme CYP4A11 (luciferine derivative, luminescence)
Type: biochemical
Conditions: human CYP4A11, luciferine derivative, luminescence
Documented pIC50 across a set of compounds
In textbook form, pIC50 equals minus log to base ten of the concentration in mol/L.

(Q) Provide one value: measured pIC50 of CS(=O)(=O)NC(=O)c1cccc(COc2ccc(-c3ccn[nH]3)nc2)c1
(A) 7.31

(Q) Tell me its pIC50 given CCC(OCCCCCCCOc1ccc(-c2ccn[nH]2)nc1)C(=O)O (centres unmarked) as the entry.
(A) 6.96

(Q) Report measured pIC50; entry is O=C(O)C1CC1c1ccc(CCOc2ccc(-c3ccn[nH]3)nc2)cc1F (centres unmarked)
(A) 6.89

---

These records show pIC50 for human CYP4V2 (Homo sapiens (Human)).
Note on units: pIC50 is unitless, being -log10 of a concentration expressed in mol/L.

Please review the entries below; each comes with its answer.
1. O=C(O)C1(OCCCCCCCOc2ccc(-c3ccn[nH]3)nc2)CCC1 :: 6.29
2. O=C(O)[C@@H]1C[C@@H]1c1ccc(CCOc2ccc(-c3ccn[nH]3)nc2)cc1 :: 5.48
3. O=C(O)C1(CCCCCCCCOc2ccc(-c3ccn[nH]3)nc2)CS(=O)(=O)C1 :: 6.18
4. O=C(O)[C@H]1C[C@@H]1c1cccc(CCOc2ccc(-c3ccn[nH]3)nc2)c1F :: 5.64

# ---- query compound ----
(Q) For the compound O=C(O)[C@@H]1C[C@H]1c1cccc(CCOc2ccc(-c3ccn[nH]3)nc2)c1F , give its reported pIC50.
(A) 5.30

---

// reported IC50 per item
Biological target: human CYP4A11 (Homo sapiens (Human))
Assay: Inhibition test against 20-HETE producing enzyme CYP4A11 (luciferine derivative, luminescence)
Format: biochemical
Conditions: human CYP4A11, luciferine derivative, luminescence
State just the number; it will be interpreted in nM.

Known results for compounds:
1) O=C(O)C1CC1c1cc(F)cc(CCOc2ccc(-c3ccn[nH]3)nc2)c1 (single isomer, unassigned) [Example 74-10] :: 56
2) CC(C)(CCNC(=O)c1cccc(COc2ccc(-c3ccn[nH]3)nc2)n1)C(=O)O :: 120
3) O=C(O)c1cccc(CNC(=O)c2cccc(COc3ccc(-c4ccn[nH]4)nc3)c2)c1 :: 40
4) O=C(O)C1COc2ccc(CCOc3ccc(-c4ccn[nH]4)nc3)cc2C1 (stereo not shown) :: 140

(Q) Name the recorded IC50 of O=C(O)/C=C/c1ccc(CCOc2ccc(-c3ccn[nH]3)nc2)cc1F , assay system human CYP4A11 (Homo sapiens (Human)).
(A) 43

---

Molecular target: UniProt Q02928
Test: Inhibition test against 20-HETE producing enzyme CYP4A11 (luciferine derivative, luminescence)
Assay type: biochemical
Conditions: E. coli membrane fraction expressing human CYP4A11, 60 μM luciferine derivative, room temperature 60 minutes
IC50 values, listed per item
Give the quantity in nM, number only.

1. CS(=O)(=O)c1cc(O)cc(COc2ccc(-c3ccn[nH]3)nc2)c1 :: 210

(Q) Give IC50 for this entry on UniProt Q02928: O=C(O)CCc1ccccc1CCOc1ccc(-c2ccn[nH]2)nc1
(A) 15

(Q) Print UniProt Q02928 IC50 for O=C(O)CCc1ccc(COc2ccc(-c3ccn[nH]3)nc2)cc1 .
(A) 79

(Q) State IC50 (UniProt Q02928) of O=C(O)C12CCC(CCCOc3ccc(-c4ccn[nH]4)nc3)(CC1)CC2 .
(A) 34

(Q) Report its IC50 with UniProt Q02928 as the test system: O=C(O)CCCCOc1ccc(-c2ccn[nH]2)nc1
(A) 560
